- Assay Text: Adhesiveness (amount of material sticking to the punch)
- Format: physicochemical
- Condition Notes: about 30 mg, φ8 mm round tooling, 10 kN, compression repeated twice
Measured Property: Cumulative amount (material sticking to the punch) (µg)

                                   compound  assay_value
0  CC#CC(=O)N1CCC[C@H]1c1nc(-c2ccc(C(=O)Nc3ccccn3)cc2)c2c(N)nccn12 [Form G]           60

[P] CC#CC(=O)N1CCC[C@H]1c1nc(-c2ccc(C(=O)Nc3ccccn3)cc2)c2c(N)nccn12 [Form F]
[Q] CC#CC(=O)N1CCC[C@H]1c1nc(-c2ccc(C(=O)Nc3ccccn3)cc2)c2c(N)nccn12 [Form I in WO2017002095A1, reference compound]
Please tell me which of the two, P or Q , has the higher reported Cumulative amount (material sticking to the punch) value. Identify your pick by its label.
Q
(Q: 90 µg, P: 60 µg)
